Quick list: LogP per entry.
METHOD_DESCRIPTION: Log P by HPLC on reversed phase columns (EEC directive 79/831 Annex V.A8; methods [a], [b], [c])
Assay type: physicochemical
Experimental: Measurement of Log P values was performed according to EEC directive 79/831 Annex V.A8 by HPLC (High Performance Liquid Chromatography) on reversed phase columns with the following methods: • ^[a] Log P value is determined by measurement of LC-UV, in an acidic range, with 0.1% formic acid in water and acetonitrile as eluent (linear gradient from 10% acetonitrile to 95% acetonitrile). • ^[b] […]

[
  {
    "COMPOUND": "OC(Cn1cncc1Br)c1ccc(Oc2ccc(C(F)(F)F)cc2)cc1C(F)(F)F (stereo not drawn) [I-38]",
    "VALUE_REPORTED": "2.96^[a]"
  },
  {
    "COMPOUND": "N#Cc1cncn1CC(O)(c1cc(F)c(F)c(Cl)c1)C1(F)CC1 (stereo not drawn) [I-476]",
    "VALUE_REPORTED": "2.54^[a]"
  },
  {
    "COMPOUND": "CC(O)(Cn1cncc1Br)c1ccc(Oc2ccc(C(F)(F)F)cc2)cc1C(F)(F)F (stereo not drawn) [I-199]",
    "VALUE_REPORTED": "2.98^[a]"
  }
]

Query block: Entry CC(O)(Cn1cncc1F)c1ccc(Oc2ccc(C(F)(F)F)nc2)nc1C(F)(F)F (stereo not drawn) [I-290] has what LogP?
Result block: 2.06^[a]

Query block: Please answer likewise for COC(Cn1cncc1Br)c1ccc(Oc2ccc(Cl)cc2)cc1Br (stereo not drawn) [I-50]
Result block: 3.59^[a]

Query block: Please answer likewise for OC(Cn1cncc1Cl)c1ccc(Oc2ccc(Cl)nc2)cc1C(F)(F)F (stereo not drawn) [I-19]
Result block: 2.14^[a]

* * *

METHOD_DESCRIPTION: Log P by HPLC on reversed phase columns (EEC directive 79/831 Annex V.A8; methods [a], [b], [c])
Format: physicochemical
TEST_PARAMETERS: reversed phase HPLC column; method [a]: LC-UV, acidic range, 0.1% formic acid in water and acetonitrile as eluent (linear gradient from 10% to 95% acetonitrile)
READOUT: chromatographic logP

[
  {
    "MOL": "N#Cc1cncn1CC(=O)c1ccc(Oc2ccc(C(F)F)cc2)nc1C(F)(F)F",
    "VALUE_REPORTED": 2.8
  },
  {
    "MOL": "N#Cc1ccc(Oc2ccc(C(=O)Cn3cncc3Cl)c(Cl)c2)cc1",
    "VALUE_REPORTED": 2.32
  },
  {
    "MOL": "O=C(Cn1cncc1Br)c1ccc(Oc2ccc(S(F)(F)(F)(F)F)cc2)nc1Cl",
    "VALUE_REPORTED": 3.23
  },
  {
    "MOL": "O=C(Cn1cncc1F)c1ccc(Oc2ccc(Br)cc2)nc1C(F)(F)F",
    "VALUE_REPORTED": 2.76
  }
]

* * *

METHOD_DESCRIPTION: Log P by HPLC on reversed phase columns (EEC directive 79/831 Annex V.A8; methods [a], [b], [c])
Format: physicochemical
TEST_PARAMETERS: reversed phase HPLC column; method [a]: LC-UV, acidic range, 0.1% formic acid in water and acetonitrile as eluent (linear gradient from 10% to 95% acetonitrile)
READOUT: chromatographic logP

A = O=C(Cn1cncc1Cl)c1ccc(Oc2ccc(C(F)(F)F)cc2)cc1Cl
B = O=C(Cn1cncc1Cl)c1ccc(Oc2ccc(Cl)cn2)cc1
Query block: Hi there, can you help? I need to know whether A or B has lower measured chromatographic logP. Reply with the label of the item you choose.
Result block: B
(B: 2.12, A: 3.33)

A = Cc1ccc(Oc2ccc(C(=O)Cn3cncc3Cl)c(Cl)c2)cc1
B = O=C(Cn1cncc1Cl)c1ccc(O)cc1Cl
Query block: Lab notebook, comparison: A versus B , higher chromatographic logP goes to which? Reply with the label of the item you choose.
Result block: A

I = CC(=O)c1cncn1CC(=O)c1ccc(Oc2ccc(C(F)(F)F)nc2)nc1C(F)(F)F
II = COc1cc(F)ccc1C(=O)Cn1cncc1Cl
Query block: Lab notebook, comparison: I versus II , higher chromatographic logP goes to which? Reply with the label of the item you choose.
Result block: I
